target: CYP3A4 (Homo sapiens, UniProt P08684); construct: A system of 100 μL human liver microsomes; from tissue; host or cells: human liver microsomes; assay: Direct inhibition (DI) of CYP3A4 in human liver microsomes; assay type: in vitro ADME; details: human liver microsomes 0.2 mg/mL, 10 μM compound, probe Testosterone, read-out: Direct inhibition (DI) 3A4 (testosterone)
Sequence (P08684 whole entry): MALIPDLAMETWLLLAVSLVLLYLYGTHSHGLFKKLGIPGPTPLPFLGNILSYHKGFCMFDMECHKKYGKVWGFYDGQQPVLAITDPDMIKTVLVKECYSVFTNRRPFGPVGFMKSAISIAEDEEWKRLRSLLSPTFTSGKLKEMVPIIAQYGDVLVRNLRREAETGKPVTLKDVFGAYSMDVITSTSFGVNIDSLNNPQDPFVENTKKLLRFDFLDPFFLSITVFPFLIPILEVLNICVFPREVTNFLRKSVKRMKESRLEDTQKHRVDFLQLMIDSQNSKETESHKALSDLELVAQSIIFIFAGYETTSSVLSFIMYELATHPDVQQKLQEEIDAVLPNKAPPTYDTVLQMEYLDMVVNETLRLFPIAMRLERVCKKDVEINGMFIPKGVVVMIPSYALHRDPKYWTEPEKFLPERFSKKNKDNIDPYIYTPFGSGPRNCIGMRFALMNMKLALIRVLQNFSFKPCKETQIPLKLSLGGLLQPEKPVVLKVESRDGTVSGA
Observation type: inhibition at 20 min, 10 µM (%)

Solved cases below.
structure=C=CC(=O)N1CCC(c2ccc3ncnc(Nc4ccc(Oc5cc6nncn6cn5)c(C)c4)c3c2)CC1 value_observed=56
structure=Cc1cc(Nc2ncnc3ccc(NC(=O)/C=C/[C@H]4CCCN4C)cc23)ccc1Oc1ccc2nccn2c1 value_observed=48

[A] C=CC(=O)N[C@@H]1CCCN(c2ccc3ncnc(Nc4ccc(Oc5cc6nncn6cn5)c(C)c4)c3c2)C1
[B] CCOc1cc2ncnc(Nc3ccc(Oc4ccn5ncnc5c4)c(C)c3)c2cc1NC(=O)/C(F)=C/[C@@H]1CCCN1C
[C] Cc1cc(Nc2ncnc3ccc(NC(=O)/C=C/[C@H]4CCCN4C)cc23)ccc1Oc1ccn2ccnc2c1
Returns the items ordered by inhibition at 20 min, 10 µM, from maximum to minimum. Please respond with the labels ordered as the question requires.
A, B, C
(A: 61%, B: 42%, C: 16%)
